# Tested on: ROCK2;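 further: KINOMEscan kinase panel screen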
# settings: concentration: 1 μM, replicates: in singlicate; n = 1
// returns 0 (no) unless %Inh is strictly below 20%, in which case 1 (yes)

-- ask Dear colleague, could you confirm whether %Inh of CS(=O)(=O)Cc1ccc(Nc2nccc(-c3c(-c4cccc(NC(=O)C5CCCCC5)c4)nn4ncccc34)n2)cc1 [GSK350559] falls below 20%? Thanks.
-- reply 0 (no)

-- ask Okay, and CC(C)c1ccc(O)cc1Nc1ccnc2ccc(C(F)(F)F)cc12 [GW482059] ?
-- reply 0 (no)

-- ask Then O=C(Nc1n[nH]c2cc(-c3ccsc3)ccc12)C1CC1 [SB-732932] ?
-- reply 1 (yes)

-- ask What do we get for O=C(Nc1n[nH]c2nc(-c3cccs3)c(Br)cc12)C1CC1 [SB-735297] ?
-- reply 1 (yes)

-- ask Another molecule to check: COc1cccc(CNC(=O)NC2CCN(c3ccnc(Nc4ccc(F)cc4)n3)C2)c1 (centres unmarked) [GSK1379723]
-- reply 1 (yes)

-- ask And COc1ccc(Nc2nccc(N3CCC(NC(=O)C(C)c4ccc(Cl)cc4)CC3)n2)cc1 (centres unmarked) [GSK1379812] ?
-- reply 1 (yes)

-- ask Consider next the molecule Cc1ccccc1Cn1ccn2c(=O)cc(N3CCOCC3)nc12 [GSK2269905] in the same way.
-- reply 1 (yes)

-- ask Also COC(=O)C(NC(=O)NC1CCN(c2ccnc(Nc3ccc(F)cc3)n2)C1)c1ccccc1 (centres unmarked) [GSK1379712] , if possible.
-- reply 0 (no)

-- ask Entry O=C(Nc1n[nH]c2nc(-c3cccs3)c(Br)cc12)C1CCCC1 [SB-743341] please
-- reply 1 (yes)

-- ask Also O=C1NC(=O)C(c2ccc(Cl)cc2)=C1Nc1ccc(O)cc1 [SB-340867] , if possible.
-- reply 1 (yes)

-- ask What do you have for COC(=O)c1cccc(NC(=O)NC2CCN(c3ccnc(Nc4ccc(F)cc4)n3)C2)c1 (centres unmarked) [GSK1379725] ?
-- reply 1 (yes)

-- ask How about Cc1ccc(NC(=O)Nc2ccccc2F)cc1-c1ccc(C(=O)Nc2ccncc2)cc1 [GSK1398477] ?
-- reply 1 (yes)

-- ask Consider next the molecule COC(=O)c1cccc(NC(=O)NC2CCN(c3ccnc(Nc4ccc(OC)cc4)n3)C2)c1 (centres unmarked) [GSK1379746] in the same way.
-- reply 0 (no)

-- ask Next entry: COc1ccc2cc(-c3nc(-c4ccccc4C(C)C)[nH]c3-c3ccncc3)ccc2c1 [SB-660566]
-- reply 1 (yes)

-- ask Can you handle NS(=O)(=O)c1cccc(N/C=C2\C(=O)Nc3ccc(S(=O)(=O)Cc4c(Cl)cccc4Cl)cc32)c1 [GSK398099] next?
-- reply 1 (yes)

-- ask Then Fc1ccc(-c2nn3cccc(F)c3c2-c2ccncc2)cc1 [GW475620] ?
-- reply 1 (yes)

-- ask Same question, CC(=O)c1cccc(NC(=O)NC2CCN(c3ccnc(Nc4ccc(F)cc4)n3)C2)c1 (centres unmarked) [GSK1379710] this time
-- reply 0 (no)

-- ask Thanks! And `COc1ccc(CSc2nnc(-c3ccc4ncsc4c3)o2)cc1C(F)(F)F` ?
-- reply 1 (yes)

-- ask Now give it for CS(=O)(=O)CCNCc1nc(-c2ccc3ncnc(Nc4ccc(OCc5ccccc5)c(Cl)c4)c3c2)cs1.Cl [GW582764] too.
-- reply 0 (no)

-- ask What would you report for O=c1cc(N2CCOCC2)nc2n(Cc3cccc(Cl)c3Cl)c3ccccc3n12 [GSK2299009] ?
-- reply 1 (yes)

-- ask # iterate: c1ccc(-c2ccnc3[nH]ccc23)cc1 [SB-693578]
-- reply 0 (no)

-- ask What do we get for CNc1cc(-c2ccc3c(N)n[nH]c3c2)nc(N)n1 [GSK2224810] ?
-- reply 0 (no)

-- ask Further, for Nc1nccc(-c2c(-c3ccc(F)cc3)ncn2C2CCN(Cc3ccccc3)CC2)n1 [SB-219980] ?
-- reply 1 (yes)

-- ask Queued: COc1ccc(Nc2nccc(NCCNC(=O)Nc3cc(C)ccc3C)n2)cc1 [GSK1379899]
-- reply 1 (yes)

-- ask Note, next up: `CCc1ccc(-c2ccc3c(c2)-c2n[nH]cc2S(=O)(=O)N3C)cc1`
-- reply 1 (yes)

-- ask Try this molecule too: CC[C@@H]1CO[C@H](C(=O)Nc2ccccc2)CN1c1cc(-c2ccc3c(N)n[nH]c3c2)nc(NC)n1 [GSK2376236]
-- reply 0 (no)

-- ask Next record, please: Nc1cccc(-c2ccc3c(N)n[nH]c3c2)n1 [GSK2192730]
-- reply 1 (yes)

-- ask Same lookup for COc1cccc(NC(=O)Nc2ccc(C)c(-c3ccc(C(=O)Nc4ccncc4)cc3)c2)c1 [GSK1398474] , please.
-- reply 1 (yes)

-- ask `COc1ccc(CSc2nnc(-c3ccc4nccn4c3)o2)cc1C(F)(F)F` , same question.
-- reply 1 (yes)

-- ask Would you mind doing COc1cccc(C2=C(Nc3cc(Cl)c(O)c(Cl)c3)C(=O)NC2=O)c1 [SB-390767] as well?
-- reply 1 (yes)

-- ask Continue with CCn1c(-c2c(N)noc2C)nc2cnccc21 [SB-737856]
-- reply 1 (yes)

-- ask Try this molecule too: Cc1nccc(-c2c(-c3ccc(F)cc3)ncn2CCCN2CCOCC2)n1.Cl [SB-282975]
-- reply 1 (yes)

-- ask // same read-out, input: O=C(Nc1n[nH]c2nc(-c3ccco3)c(Br)cc12)C1CCN(Cc2ccccc2)C1.O=C(O)[C@H](O)[C@@H](O)C(=O)O (centres unmarked) [SB-742034]
-- reply 1 (yes)

-- ask Check FC(F)(F)c1ccccc1-c1cc(-c2c[nH]nc2-c2ccccn2)ccn1 [GW679396] too.
-- reply 1 (yes)

Where these numbers come from: paper PMC5540273
